// data source = paper PMC9415638

// each record: one item and its pIC50 for UniProt P49759
Sequence (P49759 whole entry): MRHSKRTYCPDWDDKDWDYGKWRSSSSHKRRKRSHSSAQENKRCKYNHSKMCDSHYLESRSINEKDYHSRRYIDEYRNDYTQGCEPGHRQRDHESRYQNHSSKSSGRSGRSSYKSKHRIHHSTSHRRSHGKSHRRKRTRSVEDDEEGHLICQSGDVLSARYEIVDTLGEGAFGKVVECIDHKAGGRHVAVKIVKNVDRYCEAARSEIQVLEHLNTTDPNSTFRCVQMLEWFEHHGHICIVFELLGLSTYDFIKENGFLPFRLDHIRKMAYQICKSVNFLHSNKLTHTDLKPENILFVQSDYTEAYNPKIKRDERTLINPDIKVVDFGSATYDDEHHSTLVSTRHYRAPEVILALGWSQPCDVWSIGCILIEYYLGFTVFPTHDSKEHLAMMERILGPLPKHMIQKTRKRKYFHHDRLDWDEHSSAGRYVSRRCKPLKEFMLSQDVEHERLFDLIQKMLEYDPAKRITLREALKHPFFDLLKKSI
The meaning of pIC50 here: minus log10 of the concentration in molar units.

Ask | Missing value: pIC50, UniProt P49759, entry CCOC(=O)c1sc(N2N=C(c3ccc(Cl)cc3Cl)CC2c2ccc(OC)cc2)nc1C (centres unmarked) [Compound 10b] . Fill in?
Reply | 5.97

Query compound follows.
Ask | Missing value: pIC50, UniProt P49759, entry COc1ccc(C2CC(c3ccc(Cl)cc3Cl)=NN2c2nc(C)c(C(=O)Nc3ccccc3)s2)cc1OC (centres unmarked) [Compound 10d] . Fill in?
Reply | 6.10

----------
measured.target: recombinant human VEGFR-2/KDR (Homo sapiens, UniProt P35968)
Construct: purchased
Sequence (P35968 20-1356): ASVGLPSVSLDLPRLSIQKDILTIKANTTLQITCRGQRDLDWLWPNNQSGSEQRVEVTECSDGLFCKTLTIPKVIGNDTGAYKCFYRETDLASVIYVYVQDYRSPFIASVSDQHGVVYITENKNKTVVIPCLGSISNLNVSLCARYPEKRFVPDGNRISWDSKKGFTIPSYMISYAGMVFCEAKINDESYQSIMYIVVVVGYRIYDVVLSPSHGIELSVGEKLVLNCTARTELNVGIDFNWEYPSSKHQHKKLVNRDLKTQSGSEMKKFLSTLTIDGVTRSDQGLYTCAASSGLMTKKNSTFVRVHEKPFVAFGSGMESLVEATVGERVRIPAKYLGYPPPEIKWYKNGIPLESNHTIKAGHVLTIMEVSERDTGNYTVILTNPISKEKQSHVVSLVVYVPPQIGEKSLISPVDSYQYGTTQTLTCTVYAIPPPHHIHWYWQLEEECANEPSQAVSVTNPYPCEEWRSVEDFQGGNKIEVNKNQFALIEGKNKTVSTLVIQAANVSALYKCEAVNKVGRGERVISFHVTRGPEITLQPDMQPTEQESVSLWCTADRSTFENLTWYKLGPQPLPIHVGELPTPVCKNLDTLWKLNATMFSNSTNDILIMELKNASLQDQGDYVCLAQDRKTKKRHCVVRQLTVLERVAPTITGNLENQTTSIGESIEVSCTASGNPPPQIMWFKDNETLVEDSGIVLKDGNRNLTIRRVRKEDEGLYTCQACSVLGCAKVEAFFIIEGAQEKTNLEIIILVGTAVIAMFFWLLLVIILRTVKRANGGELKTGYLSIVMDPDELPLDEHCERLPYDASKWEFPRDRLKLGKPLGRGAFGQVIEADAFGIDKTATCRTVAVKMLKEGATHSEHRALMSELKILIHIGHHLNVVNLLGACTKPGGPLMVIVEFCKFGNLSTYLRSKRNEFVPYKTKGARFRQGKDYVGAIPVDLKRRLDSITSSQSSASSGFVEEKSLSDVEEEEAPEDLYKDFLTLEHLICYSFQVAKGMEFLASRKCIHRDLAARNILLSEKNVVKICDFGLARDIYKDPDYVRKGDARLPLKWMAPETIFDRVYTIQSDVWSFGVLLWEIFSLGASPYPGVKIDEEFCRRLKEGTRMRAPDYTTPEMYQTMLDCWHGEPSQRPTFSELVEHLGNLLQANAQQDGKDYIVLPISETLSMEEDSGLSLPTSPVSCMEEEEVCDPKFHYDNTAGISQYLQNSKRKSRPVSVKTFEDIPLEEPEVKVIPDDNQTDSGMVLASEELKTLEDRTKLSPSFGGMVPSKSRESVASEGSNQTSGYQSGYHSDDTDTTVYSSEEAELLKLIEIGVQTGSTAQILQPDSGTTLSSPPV
experimental.protocol: VEGFR-2 kinase assay (VEGFR-2/KDR ELISA kit)
Type: biochemical
protocol.conditions: read-out: IC50 (nM) ± SEM VEGFR-2
Items are presented alongside their recorded IC50.
Express the result in nM but write the number alone.

Worked set:
Ask | Missing value: IC50, recombinant human VEGFR-2/KDR (Homo sapiens, UniProt P35968), entry COc1ccc(C2CC(c3ccc(Cl)cc3Cl)=NN2c2nc(C)c(N=Nc3ccccc3)s2)cc1 (centres unmarked) [Compound 13a] . Fill in?
Reply | 1150

Ask | Missing value: IC50, recombinant human VEGFR-2/KDR (Homo sapiens, UniProt P35968), entry COc1ccc(C2CC(c3ccc(Cl)cc3Cl)=NN2c2nc(C)c(N=Nc3ccc(C)cc3)s2)cc1OC (centres unmarked) [Compound 13e] . Fill in?
Reply | 216

Ask | Missing value: IC50, recombinant human VEGFR-2/KDR (Homo sapiens, UniProt P35968), entry COc1ccc(C2CC(c3ccc(Cl)cc3Cl)=NN2c2nc(C)c(N=Nc3ccc(Cl)cc3)s2)cc1 (centres unmarked) [Compound 13c] . Fill in?
Reply | 173

Ask | Missing value: IC50, recombinant human VEGFR-2/KDR (Homo sapiens, UniProt P35968), entry COc1ccc(C2CC(c3ccc(Cl)cc3Cl)=NN2c2nc(-c3ccc(Cl)cc3)cs2)cc1 (centres unmarked) . Fill in?
Reply | 195

Ask | Missing value: IC50, recombinant human VEGFR-2/KDR (Homo sapiens, UniProt P35968), entry COc1ccc(C2CC(c3ccc(Cl)cc3Cl)=NN2c2nc(-c3ccc(Cl)cc3)cs2)cc1OC (centres unmarked) . Fill in?
Reply | 186

More entries:
Ask | Missing value: IC50, recombinant human VEGFR-2/KDR (Homo sapiens, UniProt P35968), entry COc1ccc(C2CC(c3ccc(Cl)cc3Cl)=NN2c2nc(C)c(N=Nc3ccccc3)s2)cc1OC (centres unmarked) [Compound 13d] . Fill in?
Reply | 336

Ask | Missing value: IC50, recombinant human VEGFR-2/KDR (Homo sapiens, UniProt P35968), entry COc1ccc(C2CC(c3ccc(Cl)cc3Cl)=NN2c2nc(-c3ccccc3)cs2)cc1OC (centres unmarked) . Fill in?
Reply | 915

Ask | Missing value: IC50, recombinant human VEGFR-2/KDR (Homo sapiens, UniProt P35968), entry COc1ccc(C2CC(c3ccc(Cl)cc3Cl)=NN2c2nc(C)c(C(C)=O)s2)cc1 (centres unmarked) [Compound 10a] . Fill in?
Reply | 450
